Would you mind telling me the reported melting point of each entry?

Value lookup for melting point; key = CCCCC1(CCCC)CS(=O)(=O)c2ccc(N(C)C)cc2[C@@H](c2ccc(OCc3cccc(CN(CC(=O)O)CC(=O)O)n3)cc2)[C@H]1O
153 to 155 °C

Another compound to check: CCS(=O)(=O)Nc1nc(CN2CCC(OC(c3ccccc3)c3ccccc3)CC2)cs1
190 to 191 °C

Another compound to check: Cc1c2c(cn1C)CN=C(c1ccccc1Cl)c1cc(Cl)ccc1-2
200 to 202 °C

Another compound to check: Cc1ccc(NC(=O)Nc2cnc3ccc(Cl)cc3c2-c2ccccc2)c(C)c1
230 to 231 °C

Another compound to check: COCCOc1cc(NS(=O)(=O)c2ccccn2)c2[nH]c(C(=O)NCC(CN3CCSCC3)SCc3ccccc3)cc2c1 (stereo not drawn)
160 to 161 °C

Another compound to check: Cc1ccc(-c2nc3ccc(CN4CCN(C)CC4)cc3[nH]2)cc1C#Cc1ccc(NC2CC2)nn1
145 to 146 °C

Another compound to check: O=C(O)Cc1cc(C(=O)c2ccc([N+](=O)[O-])cc2)ccc1O
213 °C

Another compound to check: Cc1cc(-c2cnn3c(C(F)(F)F)cc(-c4ccc(C(F)(F)F)cc4)nc23)cc(C)n1
257 °C
